- ASSAYED_SYSTEM: ALK(C1156Y) (Homo sapiens, UniProt Q9UM73, C1156Y)
- Construct: purchased Eurofins DiscoverX KINOMEscan (scanTK)
- Sequence (Q9UM73 19-1620 C1156Y): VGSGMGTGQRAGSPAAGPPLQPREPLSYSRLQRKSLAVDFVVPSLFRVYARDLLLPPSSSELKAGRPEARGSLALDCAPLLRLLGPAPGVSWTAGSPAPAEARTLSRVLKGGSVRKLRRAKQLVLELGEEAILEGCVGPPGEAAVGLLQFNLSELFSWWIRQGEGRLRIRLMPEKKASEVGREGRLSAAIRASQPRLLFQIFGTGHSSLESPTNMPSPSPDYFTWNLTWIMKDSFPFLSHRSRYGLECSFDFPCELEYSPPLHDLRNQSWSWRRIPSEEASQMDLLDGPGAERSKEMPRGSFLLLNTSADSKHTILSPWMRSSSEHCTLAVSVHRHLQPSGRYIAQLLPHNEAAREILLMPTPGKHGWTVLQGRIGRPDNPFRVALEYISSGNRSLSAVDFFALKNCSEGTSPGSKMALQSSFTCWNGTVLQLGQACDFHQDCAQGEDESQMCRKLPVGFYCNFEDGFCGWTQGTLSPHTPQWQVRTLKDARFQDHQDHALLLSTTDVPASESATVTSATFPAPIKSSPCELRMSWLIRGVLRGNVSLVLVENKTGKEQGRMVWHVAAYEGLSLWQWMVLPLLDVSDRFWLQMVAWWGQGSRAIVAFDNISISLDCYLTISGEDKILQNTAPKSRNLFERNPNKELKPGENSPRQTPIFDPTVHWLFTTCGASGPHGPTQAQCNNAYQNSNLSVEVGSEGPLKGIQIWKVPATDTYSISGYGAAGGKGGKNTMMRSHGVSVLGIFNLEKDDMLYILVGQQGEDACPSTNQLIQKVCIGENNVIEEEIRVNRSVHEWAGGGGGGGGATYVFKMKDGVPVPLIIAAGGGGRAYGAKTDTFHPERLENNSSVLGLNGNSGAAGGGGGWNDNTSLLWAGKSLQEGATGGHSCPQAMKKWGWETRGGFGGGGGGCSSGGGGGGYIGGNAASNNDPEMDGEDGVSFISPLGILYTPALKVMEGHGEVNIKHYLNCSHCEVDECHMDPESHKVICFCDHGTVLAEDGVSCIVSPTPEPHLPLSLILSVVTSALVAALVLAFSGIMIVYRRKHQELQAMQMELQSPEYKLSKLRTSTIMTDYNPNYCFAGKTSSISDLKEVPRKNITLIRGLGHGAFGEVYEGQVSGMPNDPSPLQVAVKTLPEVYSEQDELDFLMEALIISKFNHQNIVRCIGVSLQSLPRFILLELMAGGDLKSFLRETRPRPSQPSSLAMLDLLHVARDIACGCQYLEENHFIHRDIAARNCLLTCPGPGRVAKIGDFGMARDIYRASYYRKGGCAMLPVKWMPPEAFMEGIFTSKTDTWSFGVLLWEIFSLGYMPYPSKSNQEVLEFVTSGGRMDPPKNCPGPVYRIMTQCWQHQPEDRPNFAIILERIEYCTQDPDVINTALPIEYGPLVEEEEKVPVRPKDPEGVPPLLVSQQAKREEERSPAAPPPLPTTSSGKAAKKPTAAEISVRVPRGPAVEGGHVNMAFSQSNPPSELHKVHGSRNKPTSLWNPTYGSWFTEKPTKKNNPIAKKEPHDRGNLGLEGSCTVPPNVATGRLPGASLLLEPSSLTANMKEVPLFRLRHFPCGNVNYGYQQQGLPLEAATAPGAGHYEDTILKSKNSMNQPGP
- PROTOCOL_TEXT: KINOMEscan ScanTK
- Assay type: binding
- ASSAY_CONTEXT: @1000nM
ASSAY_METRIC: difference in %Control versus compound Ib at 1 µM (%)

// below: answered compounds
Tell me measured difference in %Control versus compound Ib at 1 µM for COC(=O)c1cnc(S(C)(=O)=O)nc1N1CCCC(n2nc(-c3ccc(Oc4ccccc4)cc3)c3c(N)ncnc32)C1 (stereo not shown) please.
-8

Tell me measured difference in %Control versus compound Ib at 1 µM for CNC(=O)c1cnc(S(C)(=O)=O)nc1N1CCCC(n2nc(-c3ccc(Oc4ccccc4)cc3)c3c(N)ncnc32)C1 (stereo not shown) please.
-10

(A) CCOC(=O)c1cnc(S(C)(=O)=O)nc1N1CCC[C@@H](n2nc(-c3ccc(Oc4ccccc4)cc3)c3c(N)ncnc32)C1
(B) Cc1cnc(S(C)(=O)=O)nc1N1CCCC(n2nc(-c3ccc(Oc4ccccc4)cc3)c3c(N)ncnc32)C1 (stereo not shown)
Which entry has a larger number for difference in %Control versus compound Ib at 1 µM, A or B ? Identify your selection by its label.
A
